Data provenance: patent EP4702986A1

- target-of-assay: human ETA receptor (Homo sapiens, UniProt P25101)
- Construct: expressed in transfected cells; host or cells: 293T-17 cells, transient transfection
- Sequence (P25101 21-427): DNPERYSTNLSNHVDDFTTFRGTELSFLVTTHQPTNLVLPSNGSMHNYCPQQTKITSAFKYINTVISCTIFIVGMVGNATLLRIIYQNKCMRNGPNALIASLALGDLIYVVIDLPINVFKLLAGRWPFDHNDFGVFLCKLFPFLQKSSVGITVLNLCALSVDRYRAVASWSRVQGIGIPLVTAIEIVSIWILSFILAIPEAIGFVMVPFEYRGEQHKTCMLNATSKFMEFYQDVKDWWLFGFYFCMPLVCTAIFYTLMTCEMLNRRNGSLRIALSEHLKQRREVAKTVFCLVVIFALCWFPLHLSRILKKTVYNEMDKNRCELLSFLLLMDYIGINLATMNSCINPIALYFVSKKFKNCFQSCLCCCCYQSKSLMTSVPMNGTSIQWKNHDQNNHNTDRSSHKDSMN
- assay-overview: Selectivity of polypeptides on human ETA receptor (IP-One Gq kit, % of positive control ET1)
- Assay type: cell-based
Numbered stars: 1 amine (or outer) side, 2 acyl side, 3 side chain; on linkers, the order of the positions; unused ones are H or OH. Side chains are listed from the residue outwards. Ends that are not written are not given here. * marks the point of attachment. C18 diacid = O=C(O)CCCCCCCCCCCCCCCCC(=O)*; γGlu = O=C(O)[C@H](CCC(=O)[*:2])N[*:1]; Suc = O=C(CCC(=O)[*:2])[*:1]; AEEA = NCCOCCOCC(=O)O
Would you kindly list hETAR agonist activity, percentage of activity relative to ET1 for each of these substances?
Answers are plain numbers, in %@100µM.

- substance: "Fum-DEEK(-γE-AEEA-AEEA-ODDA)VYFAHLDIIW (Fum-DEEK with lipidated linker N-terminal) [BX-66]"
  unit-spec: "%@100µM"
  reported-measurement: -0.94
- substance: "Fum-DEEEVYFAHOrnDIIW [BX-59]"
  unit-spec: "%@100µM"
  reported-measurement: -7.67
- substance: "Fum-D cyclo(EEAK)YFAHLD(2-Abu)IW [BX-64]"
  unit-spec: "%@100µM"
  reported-measurement: 6.41

Parameters: items (list). Returns: hETAR agonist activity, percentage of activity relative to ET1 for each item.
1. Suc-DEEAVYFAHK(-γE-AEEA-AEEA-ODDA)DVIW (Suc-DEEAVYFAHK([γGlu-AEEA-AEEA-C18 diacid])DVIW) [BX-78]
2. Suc-D cyclo(EEAK)YFAHLD(2-Abu)IW [BX-63]
3. Suc-DE cyclo(CEEC)YFAHKDIIW (Suc-DECEECYFAHKDIIW; not fully specified (bridges); printed as Suc-DE cyclo(CEEC)YFAHKDIIW; also: cyclo(CEEC) in N-terminal extension, bond type not given here) [BX-57]

[-23.02, 4.43, -10.53]

====

- assay-overview: in vivo
- cond: male, SD, rat, in vivo, iv
Numbered stars: 1 amine (or outer) side, 2 acyl side, 3 side chain; on linkers, the order of the positions; unused ones are H or OH. Peptide text beside a SMILES is read from it. Suc = O=C(CCC(=O)[*:2])[*:1]
readout-name: MTD at 24 h (mg/kg)
Answers are plain numbers, in mg/kg.

Look up MTD at 24 h for this compound: CC[C@H](C)[C@H](NC(=O)[C@H](CC(=O)O)NC(=O)[C@H](CC(C)C)NC(=O)[C@H](Cc1c[nH]cn1)NC(=O)[C@H](C)NC(=O)[C@H](Cc1ccccc1)NC(=O)[C@H](Cc1ccc(O)cc1)NC(=O)[C@@H](NC(=O)[C@H](C)NC(=O)[C@H](CCC(=O)O)NC(=O)[C@H](CCC(=O)O)NC(=O)[C@H](CC(=O)O)NC(=O)CCC(=O)O)C(C)C)C(=O)N[C@H](C(=O)N[C@@H](Cc1c[nH]c2ccccc12)C(=O)O)[C@@H](C)CC [IRL1620, reference compound] (Suc-DEEAVYFAHLDIIW-OH) 0.03
